Tested on: E. coli strain MCM597
Assay: Carbon sources useful for the production of isoprene (Biolog PM1 plate)
Type: cell-based
Conditions: 0.2% yeast extract, compound as carbon source; normalized to α-D-glucose

{"Compound": "OC[C@H]1O[C@H](O)[C@H](O)[C@@H](O)[C@@H]1O [α-D-glucose]", "specific productivity of isoprene": "increasing"}
{"Compound": "O=C[C@H](O)[C@@H](O)[C@@H](O)[C@H](O)C(=O)O [D-galacturonic acid]", "specific productivity of isoprene": "increasing"}
{"Compound": "O=C(CO)[C@@H](O)[C@H](O)[C@H](O)CO [D-fructose]", "specific productivity of isoprene": "increasing"}

Values from patent US8507235B2
